All figures here come from PubChem BioAssay (NCI).

System: K-562 leukemia
Experiment: NCI tumour cell line growth inhibition, 48 h
observable: GI50

Here's what some known entries look like.
| molecule | GI50 |
| --- | --- |
| CC1=CC(C)=N/C(=N/S(=O)(=O)c2cc(C)c(Cl)cc2SCc2ccccc2)NN1 | > 100 µM |
| CCN(CC)CCOc1nc2ccccc2c2c1-c1ccc(OC)cc1C2=O | 0.276 µM |

Read off the recorded GI50 for NC1CC(=O)c2c(-c3cccs3)sc(-c3cccs3)c21 (stereo not given)
25 µM

Give a short answer stating reported GI50 for CC(C)(C)NCC(O)c1ccccc1Cl (stereo not given) .
> 100 µM

Using known records, supply GI50 for `COC(=O)[C@]1(C)CCC[C@@]2(C)C3=C(CC[C@H]12)C[C@@H](CC(OC(C)=O)OC(C)=O)[C@@H](C)C3`
14.7 µM
